System: increase in ureteral pressure induced by norepinephrine
Experiment: inhibitory action on the increase in ureteral pressure induced in rabbits by intravenous norepinephrine
Format: in vivo, anesthetized male rabbits
Conditions: Oryctolagus cuniculus, iv, norepinephrine-induced ureteral hyperpressure, read-out: ID50 (50 percent inhibitory dose)
measurement name: ED50 (mg/kg)
Give your result in mg/kg as a bare value.

Given the compound COc1ccccc1N1CCN(CCc2scnc2C)CC1.Cl.Cl.Cl [B 1433] , what is its reported ED50?
0.3

Given the compound CCCCOc1ccccc1N1CCN(CCc2scnc2C)CC1.Cl [B 1341] , what is its reported ED50?
0.39

Given the compound Cc1ncsc1CCN1CCN(c2ccccc2OC(C)C)CC1.Cl [B 1398] , what is its reported ED50?
0.09

Given the compound CCCCCOc1ccccc1N1CCN(CCc2scnc2C)CC1.Cl [B 1357] , what is its reported ED50?
0.46

Given the compound Cc1ncsc1CCN1CCN(c2ccccc2O)CC1.Cl.Cl [B 1302] , what is its reported ED50?
0.44

Given the compound CCOc1ccccc1N1CCN(CCc2scnc2C)CC1.Cl.Cl.Cl [B 1211] , what is its reported ED50?
0.16

###

Biological target: post-synaptic alpha-adrenergic receptors (isolated rat vas deferens) (Rattus norvegicus)
Construct: isolated rat vas deferens; from tissue; host or cells: isolated rat vas deferens
Sequence (P43140 whole entry): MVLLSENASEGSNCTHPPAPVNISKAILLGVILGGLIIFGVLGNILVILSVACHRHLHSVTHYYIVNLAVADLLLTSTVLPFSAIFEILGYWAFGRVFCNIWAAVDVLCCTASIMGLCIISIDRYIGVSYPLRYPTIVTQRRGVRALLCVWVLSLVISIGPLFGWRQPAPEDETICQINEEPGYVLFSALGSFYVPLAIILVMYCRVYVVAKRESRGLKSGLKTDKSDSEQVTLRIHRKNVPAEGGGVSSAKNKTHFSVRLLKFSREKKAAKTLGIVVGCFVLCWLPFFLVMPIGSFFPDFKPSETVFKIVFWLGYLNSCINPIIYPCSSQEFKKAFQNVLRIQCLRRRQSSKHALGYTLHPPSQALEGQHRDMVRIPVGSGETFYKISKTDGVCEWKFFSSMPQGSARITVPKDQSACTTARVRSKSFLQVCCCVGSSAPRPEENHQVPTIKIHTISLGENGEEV
Experiment: alpha-blocking activity towards norepinephrine on isolated rat vas deferens
Conditions: norepinephrine contraction, read-out: pA2 (converted)
Can you tell me Kb for the items I'm about to list?
Give your result in nM as a bare value.

Given the compound COc1ccccc1N1CCN(CCc2scnc2C)CC1.Cl.Cl.Cl [B 1433, trihydrochloride] , what is its reported Kb?
14.5

Given the compound CCCCCOc1ccccc1N1CCN(CCc2scnc2C)CC1.Cl [B 1357, monohydrochloride] , what is its reported Kb?
17

Given the compound CCCCOc1ccccc1N1CCN(CCc2scnc2C)CC1.Cl [B 1341, monohydrochloride] , what is its reported Kb?
10

Given the compound Cc1ncsc1CCN1CCN(c2ccccc2OC(C)C)CC1.Cl [B 1398, monohydrochloride] , what is its reported Kb?
17

###

Target: post-synaptic alpha-adrenergic receptors (isolated rat vas deferens) (Rattus norvegicus)
Construct: isolated rat vas deferens; from tissue; host or cells: isolated rat vas deferens
Experiment: alpha-blocking activity towards norepinephrine on isolated rat vas deferens
Conditions: norepinephrine contraction, read-out: pA2 (converted)
measurement name: Kb (µM)
Give your result in µM as a bare value.

Entry CCCOc1ccccc1N1CCN(CCc2scnc2C)CC1 [B 1359] , system post-synaptic alpha-adrenergic receptors (isolated rat vas deferens) (Rattus norvegicus): what Kb was measured?
0.0575

Entry Cc1ncsc1CCN1CCN(c2ccccc2OCC(C)(C)C)CC1 [B 1424] , system post-synaptic alpha-adrenergic receptors (isolated rat vas deferens) (Rattus norvegicus): what Kb was measured?
0.2

Entry Cc1ncsc1CCN1CCN(c2ccccc2OCC(C)C)CC1 [B 1422] , system post-synaptic alpha-adrenergic receptors (isolated rat vas deferens) (Rattus norvegicus): what Kb was measured?
0.0363

Entry Cc1ncsc1CCN1CCN(c2ccccc2OCCC(C)C)CC1 [B 1423] , system post-synaptic alpha-adrenergic receptors (isolated rat vas deferens) (Rattus norvegicus): what Kb was measured?
0.0457

Entry Cc1ncsc1CCN1CCN(c2ccccc2OCc2ccccc2)CC1 [B 1425] , system post-synaptic alpha-adrenergic receptors (isolated rat vas deferens) (Rattus norvegicus): what Kb was measured?
0.0631

Entry CCOc1ccccc1N1CCN(CCc2scnc2C)CC1.Cl.Cl.Cl [B 1211, trihydrochloride] , system post-synaptic alpha-adrenergic receptors (isolated rat vas deferens) (Rattus norvegicus): what Kb was measured?
0.0263

Entry Cc1ncsc1CCN1CCN(c2ccccc2O)CC1.Cl.Cl [B 1302, dihydrochloride] , system post-synaptic alpha-adrenergic receptors (isolated rat vas deferens) (Rattus norvegicus): what Kb was measured?
0.126
